test system: SK-MEL-2 melanoma; experiment: NCI-60 one-dose screen, 48 h (100 = growth as untreated, 0 = no growth, -100 = all killed); details: 10 µM unless noted
Compounds without any hit were thinned out: in the full panel of roughly 83,000, 20% have a hit.
Classify by measured growth: YES if it is equal to or exceeds 60%, NO if it is smaller.

CNC(=O)c1cc(Oc2ccc3nc(NC(=O)Nc4ccc(CN5CCOCC5)c(C(F)(F)F)c4)sc3c2)ccn1    NO
CCCCCCNC(=O)Oc1ccc(/C(=C(\C)c2ccccc2)c2ccc(OCCN(CC)CC)cc2)cc1    YES
Cn1c(=O)c2c(ncn2CC[N+](C)(C)C)n(C)c1=O    YES
COCCOC(=O)C1=C(C)NC(=S)NC1c1ccc2c(c1)OCO2 (stereo unspecified)    YES

Request: Form field: growth at least 60%? Entry: CCOC(=O)c1c2ncccc2n2c(=O)n(-c3ccc(Cl)cc3)nnc12
Response: YES

Request: Say whether Oc1ccccc1/C=N/Nc1ccc2ccccc2n1 shows growth of 60% or more.
Response: YES

Request: Could you please find out whether CSc1nc(NCCO)c(C#N)c(-c2cccc(N)c2)n1 has growth that meets 60% or exceeds it?
Response: YES

Request: Confirm if growth reported for the compound CCOC(=O)c1ccc2c(c1)nc(/C=C/c1ccc(Cl)cc1)n2-c1cc(C(C)(C)C)[nH]n1 is 60% or above.
Response: YES

Request: Item COc1ccc(-c2nn(-c3ccccc3)cc2/C=C/C(=O)OCc2cn(-c3ccc(F)c(Cl)c3)nn2)cc1 with growth of 60% or above?
Response: YES

Request: Item Oc1cc(O)c2c(=S)cc(-c3ccc(Cl)cc3)oc2c1 with growth of 60% or above?
Response: NO

Request: Does C=C1CCC2C3(C)COC(c4ccc(OC)cc4Br)OC3CCC2(C)C1/C=C/C1=CCOC1=O (stereo unspecified) have a reported growth of at least 60%?
Response: YES

Value source: PubChem BioAssay (NCI)
